# conditionInfo: in isopropanol, 328.21 K
quantityKind: solubility (mole fraction)

## Task Report solubility (mole fraction) for OC[C@@H](O)C(O)[C@@H](O)CO (stereo partly specified) please.
## Result 0.00798

----------
# conditionInfo: in water, 323.25 K
quantityKind: solubility (mole fraction)
No unit in the answer, only the number.

## Task Report solubility (mole fraction) for OC[C@@H](O)C(O)[C@@H](O)CO (stereo partly specified) please.
## Result 0.339

----------
# conditionInfo: in water, 313.29 K
quantityKind: solubility (mole fraction)
No unit in the answer, only the number.

## Task Report solubility (mole fraction) for OC[C@@H](O)C(O)[C@@H](O)CO (stereo partly specified) please.
## Result 0.266

----------
# conditionInfo: in ethanol, 328.19 K
quantityKind: solubility (mole fraction)

## Task Report solubility (mole fraction) for OC[C@@H](O)C(O)[C@@H](O)CO (stereo partly specified) please.
## Result 0.0132

----------
# conditionInfo: in isopropanol, 333.27 K
quantityKind: solubility (mole fraction)
No unit in the answer, only the number.

## Task Report solubility (mole fraction) for OC[C@@H](O)C(O)[C@@H](O)CO (stereo partly specified) please.
## Result 0.0109

----------
# conditionInfo: in ethanol, 323.24 K
quantityKind: solubility (mole fraction)
No unit in the answer, only the number.

## Task Report solubility (mole fraction) for OC[C@@H](O)C(O)[C@@H](O)CO (stereo partly specified) please.
## Result 0.00966

----------
# conditionInfo: in acetone, 323.2 K
quantityKind: solubility (mole fraction)
No unit in the answer, only the number.

## Task Report solubility (mole fraction) for OC[C@@H](O)C(O)[C@@H](O)CO (stereo partly specified) please.
## Result 0.00101

----------
# conditionInfo: in n-pentanol, 328.23 K
quantityKind: solubility (mole fraction)
No unit in the answer, only the number.

## Task Report solubility (mole fraction) for OC[C@@H](O)C(O)[C@@H](O)CO (stereo partly specified) please.
## Result 0.00364

----------
# conditionInfo: in n-butanol, 328.32 K
quantityKind: solubility (mole fraction)
No unit in the answer, only the number.

## Task Report solubility (mole fraction) for OC[C@@H](O)C(O)[C@@H](O)CO (stereo partly specified) please.
## Result 0.00798

----------
# conditionInfo: in n-butanol, 318.16 K
quantityKind: solubility (mole fraction)
No unit in the answer, only the number.

## Task Report solubility (mole fraction) for OC[C@@H](O)C(O)[C@@H](O)CO (stereo partly specified) please.
## Result 0.00443

----------
# conditionInfo: in DMF, 308.24 K
quantityKind: solubility (mole fraction)
No unit in the answer, only the number.

## Task Report solubility (mole fraction) for OC[C@@H](O)C(O)[C@@H](O)CO (stereo partly specified) please.
## Result 0.0736

----------
# conditionInfo: in isopropanol, 323.16 K
quantityKind: solubility (mole fraction)

## Task Report solubility (mole fraction) for OC[C@@H](O)C(O)[C@@H](O)CO (stereo partly specified) please.
## Result 0.00588

----------
# conditionInfo: in DMF, 298.29 K
quantityKind: solubility (mole fraction)
No unit in the answer, only the number.

## Task Report solubility (mole fraction) for OC[C@@H](O)C(O)[C@@H](O)CO (stereo partly specified) please.
## Result 0.0504

----------
# conditionInfo: in toluene, 343.19 K
quantityKind: solubility (mole fraction)
No unit in the answer, only the number.

## Task Report solubility (mole fraction) for OC[C@@H](O)C(O)[C@@H](O)CO (stereo partly specified) please.
## Result 0.000124

----------
# conditionInfo: in ethanol, 333.22 K
quantityKind: solubility (mole fraction)

## Task Report solubility (mole fraction) for OC[C@@H](O)C(O)[C@@H](O)CO (stereo partly specified) please.
## Result 0.0179

----------
# conditionInfo: in n-pentanol, 333.22 K
quantityKind: solubility (mole fraction)
No unit in the answer, only the number.

## Task Report solubility (mole fraction) for OC[C@@H](O)C(O)[C@@H](O)CO (stereo partly specified) please.
## Result 0.005

----------
# conditionInfo: in DMF, 333.27 K
quantityKind: solubility (mole fraction)
No unit in the answer, only the number.

## Task Report solubility (mole fraction) for OC[C@@H](O)C(O)[C@@H](O)CO (stereo partly specified) please.
## Result 0.204

----------
# conditionInfo: in toluene, 333.3 K
quantityKind: solubility (mole fraction)
No unit in the answer, only the number.

## Task Report solubility (mole fraction) for OC[C@@H](O)C(O)[C@@H](O)CO (stereo partly specified) please.
## Result 9.6e-05

----------
# conditionInfo: in DMF, 303.26 K
quantityKind: solubility (mole fraction)
No unit in the answer, only the number.

## Task Report solubility (mole fraction) for OC[C@@H](O)C(O)[C@@H](O)CO (stereo partly specified) please.
## Result 0.0609

----------
# conditionInfo: in ethanol, 303.17 K
quantityKind: solubility (mole fraction)
No unit in the answer, only the number.

## Task Report solubility (mole fraction) for OC[C@@H](O)C(O)[C@@H](O)CO (stereo partly specified) please.
## Result 0.00309

----------
# conditionInfo: in water, 298.3 K
quantityKind: solubility (mole fraction)
No unit in the answer, only the number.

## Task Report solubility (mole fraction) for OC[C@@H](O)C(O)[C@@H](O)CO (stereo partly specified) please.
## Result 0.18

----------
# conditionInfo: in isopropanol, 303.23 K
quantityKind: solubility (mole fraction)
No unit in the answer, only the number.

## Task Report solubility (mole fraction) for OC[C@@H](O)C(O)[C@@H](O)CO (stereo partly specified) please.
## Result 0.00212

----------
# conditionInfo: in toluene, 303.19 K
quantityKind: solubility (mole fraction)
No unit in the answer, only the number.

## Task Report solubility (mole fraction) for OC[C@@H](O)C(O)[C@@H](O)CO (stereo partly specified) please.
## Result 4.52e-05

----------
# conditionInfo: in isopropanol, 298.2 K
quantityKind: solubility (mole fraction)
No unit in the answer, only the number.

## Task Report solubility (mole fraction) for OC[C@@H](O)C(O)[C@@H](O)CO (stereo partly specified) please.
## Result 0.00154

----------
# conditionInfo: in n-pentanol, 303.26 K
quantityKind: solubility (mole fraction)
No unit in the answer, only the number.

## Task Report solubility (mole fraction) for OC[C@@H](O)C(O)[C@@H](O)CO (stereo partly specified) please.
## Result 0.000734

----------
# conditionInfo: in water, 328.21 K
quantityKind: solubility (mole fraction)
No unit in the answer, only the number.

## Task Report solubility (mole fraction) for OC[C@@H](O)C(O)[C@@H](O)CO (stereo partly specified) please.
## Result 0.377

----------
# conditionInfo: in toluene, 338.16 K
quantityKind: solubility (mole fraction)
No unit in the answer, only the number.

## Task Report solubility (mole fraction) for OC[C@@H](O)C(O)[C@@H](O)CO (stereo partly specified) please.
## Result 0.000109

----------
# conditionInfo: in n-butanol, 338.22 K
quantityKind: solubility (mole fraction)
No unit in the answer, only the number.

## Task Report solubility (mole fraction) for OC[C@@H](O)C(O)[C@@H](O)CO (stereo partly specified) please.
## Result 0.0146

----------
# conditionInfo: in toluene, 328.22 K
quantityKind: solubility (mole fraction)

## Task Report solubility (mole fraction) for OC[C@@H](O)C(O)[C@@H](O)CO (stereo partly specified) please.
## Result 8.37e-05

----------
# conditionInfo: in DMF, 313.22 K
quantityKind: solubility (mole fraction)
No unit in the answer, only the number.

## Task Report solubility (mole fraction) for OC[C@@H](O)C(O)[C@@H](O)CO (stereo partly specified) please.
## Result 0.0895

----------
# conditionInfo: in n-butanol, 313.22 K
quantityKind: solubility (mole fraction)

## Task Report solubility (mole fraction) for OC[C@@H](O)C(O)[C@@H](O)CO (stereo partly specified) please.
## Result 0.00342

----------
# conditionInfo: in ethanol, 298.28 K
quantityKind: solubility (mole fraction)
No unit in the answer, only the number.

## Task Report solubility (mole fraction) for OC[C@@H](O)C(O)[C@@H](O)CO (stereo partly specified) please.
## Result 0.00242

----------
# conditionInfo: in DMF, 293.21 K
quantityKind: solubility (mole fraction)
No unit in the answer, only the number.

## Task Report solubility (mole fraction) for OC[C@@H](O)C(O)[C@@H](O)CO (stereo partly specified) please.
## Result 0.0411

----------
# conditionInfo: in toluene, 298.28 K
quantityKind: solubility (mole fraction)
No unit in the answer, only the number.

## Task Report solubility (mole fraction) for OC[C@@H](O)C(O)[C@@H](O)CO (stereo partly specified) please.
## Result 4.18e-05

----------
# conditionInfo: in acetone, 308.22 K
quantityKind: solubility (mole fraction)
No unit in the answer, only the number.

## Task Report solubility (mole fraction) for OC[C@@H](O)C(O)[C@@H](O)CO (stereo partly specified) please.
## Result 0.000401

----------
# conditionInfo: in toluene, 313.23 K
quantityKind: solubility (mole fraction)
No unit in the answer, only the number.

## Task Report solubility (mole fraction) for OC[C@@H](O)C(O)[C@@H](O)CO (stereo partly specified) please.
## Result 5.63e-05

Just for reference, BigSolDB 2.1 is where these values come from.
